test system: MIA PaCa-2 pancreatic cancer cell line; assay: Cell proliferation assay (DAPI); assay type: cell-based; conditions: Homo sapiens; MIA PaCa-2 (Table 5A)
measured-quantity: IC50

Q. Which measured IC50 belongs to COc1c(F)cccc1-c1sc2nc(-c3nccn3C)nc(N[C@@H]3CC[C@H](OC)C3)c2c1-c1ccccc1 [drawing 622] , tested on MIA PaCa-2 pancreatic cancer cell line?
A. 750 to 1000 nM

Q. Notebook entry, MIA PaCa-2 pancreatic cancer cell line assay: IC50 of COc1cccc(Cn2ccnc2-c2nc(O)c3scc(-c4ccc(OCC(C)C)nc4)c3n2)c1 [drawing 635] = ?
A. < 500 nM

Q. MIA PaCa-2 pancreatic cancer cell line / IC50 / COc1c(O)nc(-c2ccccn2)nc1Nc1ccccc1 [drawing 615] : value?
A. > 1000 nM

Q. Record lookup: for MIA PaCa-2 pancreatic cancer cell line, what IC50 belongs to Cc1c(-c2ccn(C)n2)sc2nc(-c3nccn3C)nc(NCCOC(=O)N(C)C)c12 [drawing 653] ?
A. > 1000 nM

Q. Query the reported IC50 for MIA PaCa-2 pancreatic cancer cell line; item: COCCn1ccnc1-c1nc(O)c2scc(-c3ccc(OCC(C)C)nc3)c2n1 [drawing 633]
A. < 500 nM
